# MEASURED ON: HLA-A*0201 (human)
# MEASUREMENT DESCRIPTION: inhibition of 125I-labelled probe peptide binding to purified HLA, gel filtration
# COND: remark: other sources report otherwise
Rule for this label: met means IC50 is less than 20 nM; not met means IC50 is at least 20 nM.

SLHLLSNDMCV (modifications not checked) [Peptide 1418.66 (HuK2.175.V11) …] = met
SVGCTGAVPV (modifications not checked) [Peptide 1418.35 (HuK2.11.V10) …] = not met

## Input Bench note: check whether ALSVGCTGV (modifications not checked) [Peptide 1418.15 (HuK2.9.V9) …] shows IC50 below 20 nM
## Output not met

## Input Next entry: SLQCVSLHL (modifications not checked) [Peptide 60.0191 (HuK2.170) …]
## Output not met

## Input Next entry: DLMLLRLSEPV (modifications not checked) [Peptide 63.0109 (HuK2.120.V11; PSA.116.V11) …]
## Output not met
